# Assay text: qHTS of pediatric cancer cell lines to identify multiple opportunities for drug repurposing: Primary screen for SK-N-SH cells (AID 1347098); also: nearly all actives have a fitted effect of over 65% in size
# Measurement context: SK-N-SH viability, CellTiter-Glo luminescence, 48 h; series mostly up to 57 µM
Records with an inconclusive call do not appear. Active and inactive are the calls of the source. Calls follow the shape of the dose curve; as a rule, active = well fitted cell-killing curve with a large enough effect; inconclusive = small, poorly fitted or top-dose-only effect; inactive = no such curve, though single readings can be large or run the other way.
Labels: T for active, F for inactive

- Compound: "Cc1cc(C=c2sc3nc4ccccc4n3c2=O)c(C)n1-c1ccccc1"
  Class assignment: "F"
- Compound: "CCCc1nn(C)c2c(=O)[nH]c(-c3cc(S(=O)(=O)N4CCN(C)CC4)ccc3OCC)nc12"
  Class assignment: "F"
- Compound: "CC(C)(N)C(=O)N[C@H](COCc1ccccc1)C(=O)N1CCC2(CC1)CN(S(C)(=O)=O)c1ccccc12"
  Class assignment: "T"
- Compound: "O=C(O)CCc1ccc(NCc2cccc(Oc3ccccc3)c2)cc1"
  Class assignment: "F"
- Compound: "CC(C)(C)NCC(O)c1ccc(O)c(CO)c1 (configuration not stated)"
  Class assignment: "F"
- Compound: "CCC(=O)N[C@H]1CC[C@H](C(=O)N(C)c2ccc(-c3nc4ccccc4o3)cc2)C1"
  Class assignment: "T"
- Compound: "O=C(c1cc(Cc2n[nH]c(=O)c3ccccc23)ccc1F)N1CCN(C(=O)C2CC2)CC1"
  Class assignment: "T"
- Compound: "Oc1ccc(C2CNCCc3c2cc(O)c(O)c3Cl)cc1 (configuration not stated)"
  Class assignment: "F"
- Compound: "COc1ccc(CCN2CCN(CCCc3ccccc3)CC2)cc1OC"
  Class assignment: "F"
- Compound: "Fc1ccc(Cl)cc1-c1nc(Nc2ccncc2)c2nccnc2n1"
  Class assignment: "F"
- Compound: "NC[C@H](O)c1ccc(O)c(O)c1"
  Class assignment: "F"
- Compound: "NC(=O)c1cnccn1"
  Class assignment: "F"
- Compound: "O=C(Nc1nc2ccccc2n1CCN1CCOCC1)c1cccc([N+](=O)[O-])c1"
  Class assignment: "T"
- Compound: "Cc1[nH]c(=O)c(C#N)cc1-c1ccc2nccn2c1"
  Class assignment: "F"
- Compound: "CO[C@@H]1[C@H](N(C)C(=O)c2ccccc2)C[C@H]2O[C@]1(C)n1c3ccccc3c3c4c(c5c6ccccc6n2c5c31)C(=O)NC4"
  Class assignment: "T"
- Compound: "CC(C[N+](C)(C)C)OC(N)=O (configuration not stated)"
  Class assignment: "F"
- Compound: "CCc1ccc(CCOc2ccc(CC3SC(=O)NC3=O)cc2)nc1 (configuration not stated)"
  Class assignment: "F"
- Compound: "CN(C)C(=O)c1ccc(S(=O)(=O)c2ccc(NC(=O)[C@@](C)(O)C(F)(F)F)c(Cl)c2)cc1"
  Class assignment: "F"
- Compound: "OCCC#Cc1nc(-c2ccc(F)cc2)c(-c2ccncc2)n1CCCc1ccccc1"
  Class assignment: "F"
- Compound: "Cc1cn[nH]c1"
  Class assignment: "F"
- Compound: "O=c1n(CCCN2CCN(c3cccc(Cl)c3)CC2)nc2ccccn12"
  Class assignment: "F"
- Compound: "O=C(Nc1cccnc1)N1CCC(Cc2cccc(Oc3ccc(C(F)(F)F)cn3)c2)CC1"
  Class assignment: "F"

====

# Tested on: ECU
# Assay text: qHTS profiling for inhibitors of Plasmodium falciparum proliferation (AID 504749); also: nearly all actives have a fitted effect of over 60% in size
# Measurement context: P. falciparum in erythrocytes, SYBR Green DNA, 72 h; series mostly up to 28.7 µM
Records with an inconclusive call do not appear. Calls of active or inactive are those of the source. Calls come from the whole dose curve; as a rule, active = well fitted inhibition curve with a large enough effect; inconclusive = small, poorly fitted or top-dose-only effect; inactive = flat fitted curve, though single readings scatter.
Labels: 1 (active), 0 (inactive)

- Molecule: "Clc1ccc(Nc2nnc(Cc3ccncc3)c3ccccc23)cc1"
  Class assignment: 1
- Molecule: "O=c1[nH]cnc2[nH]ncc12"
  Class assignment: 0
- Molecule: "NCCCC(N)(C(=O)O)C(F)F (stereo unspecified)"
  Class assignment: 0
- Molecule: "N#Cc1ccc(C(c2ccc(C#N)cc2)n2cncn2)cc1"
  Class assignment: 0
- Molecule: "CC(C)C[C@H](NC(=O)[C@@H](O)[C@H](N)Cc1ccccc1)C(=O)O"
  Class assignment: 1
- Molecule: "NC[C@H](O)c1ccc(O)c(O)c1"
  Class assignment: 0
